# Tested On: Cyclin-dependent kinase 2 (Homo sapiens) (UniProt P24941);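 also: mean inhibition of CDK2 in complex with cyclin E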
# Measurement Context: at 0.1 µM
Listed compounds paired with reported inhibition
Measure: inhibition (%)

>  <Chem Smiles>
COc1cc(C)c(N(C)C(=O)CN(C)C)cc1Nc1nc(Nc2cccc(F)c2C(N)=O)c2cc[nH]c2n1

>  <Unit Abbrev>
%

>  <Experimental Result>
-2.41

$$$$
>  <Chem Smiles>
NS(=O)(=O)c1ccc(N/N=C2\C(=O)Nc3ccc(-c4cnco4)cc32)cc1

>  <Unit Abbrev>
%

>  <Experimental Result>
67.2

$$$$
>  <Chem Smiles>
C#Cc1cccc(Nc2ncnc3ccc(OCCCCNCCS(C)(=O)=O)cc23)c1

>  <Unit Abbrev>
%

>  <Experimental Result>
0.97

$$$$
>  <Chem Smiles>
CN(C)c1ccc2c(c1)/C(=C/Nc1ccc(S(N)(=O)=O)cc1)C(=O)N2

>  <Unit Abbrev>
%

>  <Experimental Result>
16.3

$$$$
>  <Chem Smiles>
O=C1NC(=O)C(c2cccc(Cl)c2)=C1Nc1ccc(Cl)c(C(=O)O)c1

>  <Unit Abbrev>
%

>  <Experimental Result>
1.73

$$$$
>  <Chem Smiles>
C[C@@H](Oc1cc(-n2cnc3ccc(OC4CCN(C)CC4)cc32)sc1C(N)=O)c1ccccc1Cl

>  <Unit Abbrev>
%

>  <Experimental Result>
-0.63

$$$$
>  <Chem Smiles>
CCC(=O)Nc1ccc(C)c(-c2ccc(C(=O)NCC3CC3)cc2)c1

>  <Unit Abbrev>
%

>  <Experimental Result>
3.5

$$$$
>  <Chem Smiles>
COc1cc2ncn(-c3cc(OCc4cccs4)c(C(N)=O)s3)c2cc1OC

>  <Unit Abbrev>
%

>  <Experimental Result>
-0.55

$$$$
>  <Chem Smiles>
Cc1ccc(NC(=O)c2ccoc2)cc1-c1ccc(C(=O)NCC2CC2)cc1

>  <Unit Abbrev>
%

>  <Experimental Result>
0.91

$$$$
>  <Chem Smiles>
NS(=O)(=O)c1ccc(Nc2cc(-c3ccc(O)c(F)c3)n[nH]2)cc1

>  <Unit Abbrev>
%

>  <Experimental Result>
59.9

$$$$
